# measurementNotes: Protein binding in mouse plasma assessed as free plasma concentration incubated for 10 mins by ultracentrifugation
# Type: ADME, cell-free
measuredQuantity: fraction unbound at 10 min
Just the number, please, no unit after it.

Task item: Identify measured fraction unbound at 10 min associated with "O=C(c1ccco1)N1CCN([C@@H]2CC(=O)N(c3ccc(-c4ccc(F)cc4)cc3)C2)CC1"
Reply: 0.24

* * *

Attribute: IC50
# measuredTarget: Monoglyceride lipase (Mus musculus, UniProt O35678)
# Sequence (O35678 whole entry): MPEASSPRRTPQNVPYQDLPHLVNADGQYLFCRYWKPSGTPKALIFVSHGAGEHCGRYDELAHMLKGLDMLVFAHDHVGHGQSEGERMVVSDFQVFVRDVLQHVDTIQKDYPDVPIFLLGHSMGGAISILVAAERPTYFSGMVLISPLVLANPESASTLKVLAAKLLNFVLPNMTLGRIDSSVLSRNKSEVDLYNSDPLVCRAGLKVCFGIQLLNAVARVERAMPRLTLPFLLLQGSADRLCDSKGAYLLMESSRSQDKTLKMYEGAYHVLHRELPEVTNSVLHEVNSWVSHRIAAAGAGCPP
# measurementNotes: Inhibition of mouse MAGL using 2-AG as substrate incubated for 30 mins
Please give a number only; it is taken to be in nM.

Some compounds with known IC50 results, for comparison:
Task item: Identify measured IC50 associated with COc1ccccc1-c1ccc(N2CC(N3CCN(c4ncccn4)CC3)CC2=O)cc1 (stereo not drawn)
Reply: 72

Task item: Identify measured IC50 associated with COc1cccc(-c2ccc(N3CC(N4CCN(c5ncccn5)CC4)CC3=O)cc2)c1 (stereo not drawn)
Reply: 20

// next entry
Task item: Identify measured IC50 associated with O=C1CC(N2CCN(c3ncccn3)CC2)CN1c1cccc(N2CC[C@@H](F)C2)c1 (stereo partly drawn)
Reply: 10700

* * *

# measurementNotes: Clearance in mouse liver microsomes by LC/MS analysis
# Assay type: ADME, Microsome
# conditionNotes: read-out: CLH
measuredQuantity: microsomal CLint (µL/min/mg)
Please give a number only; it is taken to be in µL/min/mg.

Task item: Identify measured microsomal CLint associated with "O=C(c1ccco1)N1CCN([C@@H]2CC(=O)N(c3ccc(-c4ccc(F)cc4)cc3)C2)CC1"
Reply: 124
